experiment: Hydrogen peroxide (H2O2) inhibition assay (fluorescence, DCF/horseradish peroxidase); assay type: biochemical; settings: HCl salt tested where HCl salt MW is given
Entries whose IC50 is below 400 nM take yes; entries at or above 400 nM take no.

Worked set:
>>> df
                                   compound  class
0  CCCCNCc1cc(=O)n2cccc(O)c2n1 [Compound 1405]    yes
1  Cc1ccc(O)c2nc(CNC3CCCCC3)cc(=O)n12 [Compound 1468]    yes
2  O=C(NC1CCCC1)c1cnc2c(O)cccn2c1=O [Compound 1436]    yes
3  O=c1cc(CNCC2CCCCC2)nc2c(O)cccn12 [Compound 1458]     no
4  CCCCCCCNC(=O)C1=CNC2C(O)=CC=CN2C1=O (stereo not shown) [Compound 1462]     no
5  CN(Cc1cc(=O)n2cccc(O)c2n1)Cc1ccccc1F [Compound 1516]    yes
6  O=c1cc(CNCc2ccccc2)nc2c(O)cccn12 [Compound 1442]    yes
7  O=c1cc(CNc2cccnc2)nc2c(O)cccn12 [Compound 1448]     no

Does the reported IC50 of the following compound sit strictly below 400 nM? O=C(NCC1CC1)c1cnc2c(O)cccn2c1=O [Compound 1428]
no
